- measurement target: T1, human HER3-ECD-His (human, UniProt P21860 20-643)
- T1 construct: extracellular domain; Fusion protein of the extracellular domain of human HER3 and a His tag; also called hHER3-ECD-His; human HER3 extracellular domain protein; not shown: His tag
- test summary: Octet (BLI)
outcome measure: pKd
Please note pKd is a logarithmic value: minus log10 of concentration in mol/L. Answer with that number alone.

Exam item: Sample cHE1-G1W (antibody, human IgG1, V domains shown, also called chimeric HE1 antibody; not shown: human IgG1 heavy chain constant region, GenBank AXN93653.1; human kappa light chain constant region, GenBank AWK57456.1) VH: EVKLQESGPGLVKPSQSLSLTCSVTGYSITSGYYWNWIRQFPGNKLEWMGYISYDGSNNYNPSLKNRISITRDTSKNQFFLNLNSVTTEDTATYYCARVDWDGDAMDYWGQGTSVTVSS VL: DIVLTQSPASLAVSLGQRATISCRASESVDNYGIRLMHWYQQKSGQPPKLLIHRASNLESGIPARFSGSGSRTDFTLTINPVETDDVATYYCQQSNKDPFTFGSGTKLEIKR — what was its pKd?
Marked response: 8.31

Exam item: State the recorded pKd for this entry: cHE6-G1W (antibody, human IgG1, V domains shown, also called chimeric HE6 antibody; not shown: human IgG1 heavy chain constant region, GenBank AXN93653.1; human kappa light chain constant region, GenBank AWK57456.1) VH: EVQLQQSGPDLVKPGTSVKMSCKASGYTFTDYYMHWVRQSHGKSLEWIGYINPNNGDAIYNQKFKGKATLTVNKSSTTAYMALRSLTSEDSAVYFCATYDYGGDFYFDVWGTGTTVTVSS VL: DIELTQSPALMSASPGEKVTMTCSASSSVSYMYWYQQKPRSSPKPWIYLTSNLASGVPARFSGSGSGTSYSLTISSMEAEDAATYYCQQWSRNPLTFGAGTKLELKR
Marked response: 11.94

Exam item: # get_value(readout='pKd', item= cHE5-G1W (antibody, human IgG1, V domains shown, also called chimeric HE5 antibody; not shown: human IgG1 heavy chain constant region, GenBank AXN93653.1; human kappa light chain constant region, GenBank AWK57456.1) VH: EVQLQESGPGLVKPSQSLSLTCSVTGYSITSGYYWNWIRQFPGNKLEWMGYISYDGSNNYNPSLKNRISITRDTSKNQFFLKLNSVTTEDTATYYCASYDYDGDWFAYWGQGTLVTVSA VL: DIVLTQSPASLAVSLGQRATISCRASESVDHYGSSFMHWYQQKPGQPPKLLIYRASNPESGIPARFSGSGSRTDFTLTINPVETDDVATYYCQQSNKDPPTFGGGTKLEIKR )
Marked response: 8.45

Exam item: Looking for the measured pKd of cHE4-G1W (antibody, human IgG1, V domains shown, also called chimeric HE4 antibody; cHE4-G1W4; not shown: human IgG1 heavy chain constant region, GenBank AXN93653.1; human kappa light chain constant region, GenBank AWK57456.1) VH: EVQLVESGGGLVKPGGSLKLSCAASGFTFSSYVMSWVRQTPEKRLEWVATISDGDSSTYYPDNVKGRFTISRDNAKNNLFLQMSHLKSEDTAMYFCARDKGHGYDEGAFVYWGQGTLVTVSA VL: DIQMTQSPASLSASVEETVTITCRASENIYSYLAWYQQKQGKSPQLLVYNAKTLAEGVPSRFSGSGSGTEFSLKINSLQPEDFGSYYCQNHYGTPYTFGGGTKLEIKQ , can you help?
Marked response: 9.39

Exam item: Which pKd reading was recorded for the binder cHE7-G1W (antibody, human IgG1, V domains shown, also called chimeric HE7 antibody; not shown: human IgG1 heavy chain constant region, GenBank AXN93653.1; human kappa light chain constant region, GenBank AWK57456.1) VH: EVQLQQSGPDLVKPGTSVKMSCKASGYTFTDYYMHWVRQSHGKSLEWIGYINPNNGDAIYNQKFKGKATLTVDKSSTTAYMALRSLTSEDSAVYFCATYDYGGDFYFDVWGTGTTVTVSS VL: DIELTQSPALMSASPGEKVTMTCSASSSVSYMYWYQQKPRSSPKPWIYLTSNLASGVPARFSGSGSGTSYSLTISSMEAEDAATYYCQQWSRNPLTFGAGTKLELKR ?
Marked response: 11.88

Exam item: Quick one: pKd for cHE2-G1W (antibody, human IgG1, V domains shown, also called chimeric HE2 antibody; not shown: human IgG1 heavy chain constant region, GenBank AXN93653.1; human kappa light chain constant region, GenBank AWK57456.1) VH: EVKLQESGPGLVKPSQSLSLTCSVTGYSITSGYYWNWIRQFPGNKLEWMGYISYDGSNNYNPSLKNRISITRDTSKNQFFLKLNSVTTEDTATYYCARMDWDGDAMDYWGQGTSVTVSS VL: DIVLTQSPASLAVSLGQRATISCRASESVDNYGISLMHWYQQKPGQPPKLLIYRASNLESGIPARFSGSGSRTDFTLTINPVETDDVATYYCQQSNKDPPTFGAGTKLELKR ?
Marked response: 8.45

Data provenance: patent EP4725966A1
